EXPERIMENT DESCRIPTION: Half life in rat at 0.5 mg/kg, iv
Type: ADME, organism-based
STATED CONDITIONS: in vivo
ASSAY READOUT: half-life (min)

INSERT INTO results (mol_smiles, assay_readout, reported_result) VALUES
  ('CNC(=O)Nc1cc(Oc2cncc(C)c2)c(-c2ccc(OCC(C)(C)O)nc2)cn1', 'half-life', 84);

----------
EXPERIMENT DESCRIPTION: Volume of distribution at steady state in rat at 2 mg/kg, po or 0.5 mg/kg, iv
Assay type: ADME, organism-based
STATED CONDITIONS: in vivo, read-out: Vdss
ASSAY READOUT: Vd (L/kg)

INSERT INTO assay_data (mol_smiles, reported_result) VALUES
  ('CNC(=O)Nc1cc(Oc2cncc(C)c2)c(-c2ccc(OCC(C)(C)O)nc2)cn1', 2.18);

----------
EXPERIMENT DESCRIPTION: Cmax in mouse at 5 mg/kg, po
Format: ADME, organism-based
Set-up: dose 5 mg/kg, route oral
STATED CONDITIONS: in vivo
ASSAY READOUT: Cmax (nM)

INSERT INTO measurements (mol_smiles, assay_readout, value_units, reported_result) VALUES
  ('CNC(=O)Nc1cc(Oc2cncc(C)c2)c(-c2ccc(OCC(C)(C)O)nc2)cn1', 'Cmax', 'nM', 350);

----------
EXPERIMENT DESCRIPTION: Clearance in cynomolgus monkey at 2 mg/kg, po or 0.5 mg/kg, iv
Assay type: ADME, organism-based, Macaca fascicularis
STATED CONDITIONS: in vivo
ASSAY READOUT: clearance (mL/min/kg)

INSERT INTO results (mol_smiles, reported_result) VALUES
  ('CNC(=O)Nc1cc(Oc2cncc(C)c2)c(-c2ccc(OCC(C)(C)O)nc2)cn1', 10);

----------
EXPERIMENT DESCRIPTION: Tmax in cynomolgus monkey at 2 mg/kg, po or 0.5 mg/kg, iv
Assay type: ADME, organism-based, Macaca fascicularis
STATED CONDITIONS: in vivo
ASSAY READOUT: Tmax (h)

INSERT INTO results (mol_smiles, assay_readout, reported_result) VALUES
  ('CNC(=O)Nc1cc(Oc2cncc(C)c2)c(-c2ccc(OCC(C)(C)O)nc2)cn1', 'Tmax', 1.67);

----------
EXPERIMENT DESCRIPTION: Terminal plasma concentration in ob/ob mouse at 10 mg/kg, po administered 30 mins prior to testing by oral glucose tolerance test
Format: ADME, organism-based
STATED CONDITIONS: read-out: Cp(T)
ASSAY READOUT: concentration at 0.5 h

INSERT INTO results (mol_smiles, reported_result) VALUES
  ('CNC(=O)Nc1cc(Oc2cncc(C)c2)c(-c2ccc(OCC(C)(C)O)nc2)cn1', '3.6 µM');

----------
EXPERIMENT DESCRIPTION: Volume of distribution at steady state in mouse at 5 mg/kg, po or 1 mg/kg, iv
Assay type: ADME, organism-based
STATED CONDITIONS: in vivo, read-out: Vdss
ASSAY READOUT: Vd (L/kg)

INSERT INTO assay_data (mol_smiles, value_units, reported_result) VALUES
  ('CNC(=O)Nc1cc(Oc2cncc(C)c2)c(-c2ccc(OCC(C)(C)O)nc2)cn1', 'L/kg', 0.59);
